Just for reference, patent US20190092827A1 is where these values come from.

target: the molecule itself; assay: solution NMR spectroscopy, monomer-dimer equilibrium (homodimerisation)
metric: Kd (µM)
Provide only the numeric value, understood in µM.

Just so you know, measured Kd for WT MIP-2 (chemokine CXCL2, also known as MIP-2 in mice) (ligand, mouse, UniProt P10889 28-100, looked up, also called native MIP-2; wild-type (WT) chemokine) AVVASELRCQCLKTLPRVDFKNIQSLSVTPPGPHCAQTEVIATLKGGQKVCLDPEAPLVQKIIQKILNKGKAN came out at 10
